B1: BEX1 (parent)
chain: EENMERIGEEVRQLMEKLREKQLS

# Variants of: B1
# ASSAY NAME: protein stability index of a GFP-peptide fusion (GPS, HEK-293T) (PSI 1-6); higher = more stable;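 further: lentivirally expressed fusions sorted by FACS into six bins by GFP to DsRed ratio, PSI derived from sequencing read proportions per bin multiplied by bin number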
# RUN PARAMETERS: c terminus: a fixed tail appended
Classes are defined on protein stability index with ranges bin 0 = under 3, bin 1 = from 3 up to 4, bin 2 = 4 and over

Qu. Sort RENMERIGEEVRQLMEKLREKQLS [E1R] into one of the categories.
Ans. bin 1

Qu. Sort EETMERIGEEVRQLMEKLREKQLS [N3T] into one of the categories.
Ans. bin 1

Qu. Sort EENMERSGEEVRQLMEKLREKQLS [I7S] into one of the categories.
Ans. bin 2

Qu. Sort EENMEGIGEEVRQLMEKLREKQLS [R6G] into one of the categories.
Ans. bin 2

Qu. Sort EENMERIGEEVRQLMEKLREKQLL [S24L] into one of the categories.
Ans. bin 2

Qu. Sort EENMERIGEEVRQLMNKLREKQLS [E16N] into one of the categories.
Ans. bin 2

Qu. Sort EENMERIGEEVRQLMEKLRWKQLS [E20W] into one of the categories.
Ans. bin 0

Qu. Sort EENMERIGAEVRQLMEKLREKQLS [E9A] into one of the categories.
Ans. bin 2

Qu. Sort EENMERIGEEVRQLAEKLREKQLS [M15A] into one of the categories.
Ans. bin 0

Qu. Sort EEFMERIGEEVRQLMEKLREKQLS [N3F] into one of the categories.
Ans. bin 2

Qu. Sort EENMERIGEEVRQLMEKLREKMLS [Q22M] into one of the categories.
Ans. bin 0

Qu. Sort EENMERIGEEVRQLMEKLREKALS [Q22A] into one of the categories.
Ans. bin 0

Qu. Sort EENMERIGEEVRQLMEKLREKGLS [Q22G] into one of the categories.
Ans. bin 2

Qu. Sort EENMWRIGEEVRQLMEKLREKQLS [E5W] into one of the categories.
Ans. bin 1

Qu. Sort EEDMERIGEEVRQLMEKLREKQLS [N3D] into one of the categories.
Ans. bin 1

Qu. Sort EENMERIGEEVRQLMEKLREEQLS [K21E] into one of the categories.
Ans. bin 1
